IC50 data for Tubulin alpha chain (Sus scrofa) follow.
MEASUREMENT NAME: IC50 (nM)

P: COc1cc2c(c(OC)c1OC)-c1ccc(SC)c(=O)cc1[C@@H](COC(=O)c1cccc(F)c1)C2
Q: Cc1cnc2nc(-c3cccc(Cl)c3)cc(O)c2c1
Field: entry with larger IC50 (options P / Q ). Identify your selection by its label.
P
(P: 3390 nM, Q: 724 nM)

1: COc1cc2c(c(OC)c1OC)-c1ccc(SC)cc1[C@H](OC(C)=O)CC2
2: Cc1ccc2c(O)cc(-c3ccc(Br)s3)nc2n1
3: Oc1cc(-c2ccc(F)cc2)nc2ncc(Cl)cc12
Kindly order the items shown according to IC50, from the highest value down. Lab note: final answer is the ordered label list.
3, 1, 2

a: COc1cc2c(c(OC)c1OC)-c1ccc(SC)c(=O)cc1[C@@H](NCc1ccc(F)cc1)CC2
b: Cc1cnc2nc(-c3cccc4ccccc34)cc(O)c2c1
c: Cc1cccc(-c2cc(O)c3ccc(C)nc3n2)c1
Rank the items in ascending order with respect to IC50. Lab note: final answer is the ordered label list.
b, c, a

1: COc1ccc(CN[C@H]2CCc3cc(OC)c(OC)c(OC)c3-c3ccc(SC)c(=O)cc32)c(OC)c1OC
2: Oc1cccc(-c2cc(O)c3cc4c(cc3n2)OCO4)c1
Between 1 and 2 , which one has the lower reported IC50 value? Identify your selection by its label.
2
(2: 468 nM, 1: 2290 nM)

A: CCCC(=O)O[C@H]1CCc2cc(OC)c(OC)c(OC)c2-c2ccc(SC)cc21
B: Cc1cc(C)c2c(O)cc(-c3cccc(Cl)c3)nc2n1
C: Oc1cc(-c2cccc(F)c2)nc2cc3c(cc12)OCO3
Kindly order the items shown according to IC50, from the highest value down. Lab note: final answer is the ordered label list.
A, B, C

A: COc1cc2c(c(OC)c1OC)-c1ccc(SC)c(=O)cc1[C@@H](NCc1ccc(C#N)cc1)CC2
B: Oc1cc(-c2cccc(Cl)c2)nc2ncccc12
Field: entry with larger IC50 (options A / B ). Identify your selection by its label.
A
(A: 2510 nM, B: 1510 nM)

A: COc1cc2c(c(OC)c1OC)-c1ccc(SC)cc1[C@H](OC(=O)c1ccccc1)CC2
B: COc1cccc(-c2cc(O)c3c(Cl)ccnc3n2)c1
Between A and B , which one has the lower reported IC50 value? Identify your selection by its label.
B

A: Cc1ccc2c(O)cc(-c3sccc3C)nc2n1
B: COc1cccc(-c2cc(O)c3ccc(C)nc3n2)c1
C: Cc1ccc2c(O)cc(-c3ccsc3)nc2n1
Rank the items in ascending order with respect to IC50. Lab note: final answer is the ordered label list.
B, A, C
(B: 759 nM, A: 2820 nM, C: 7940 nM)

----------
target: Tubulin alpha chain (Sus scrofa, UniProt P02550)
Sequence (P02550 whole entry, looked up): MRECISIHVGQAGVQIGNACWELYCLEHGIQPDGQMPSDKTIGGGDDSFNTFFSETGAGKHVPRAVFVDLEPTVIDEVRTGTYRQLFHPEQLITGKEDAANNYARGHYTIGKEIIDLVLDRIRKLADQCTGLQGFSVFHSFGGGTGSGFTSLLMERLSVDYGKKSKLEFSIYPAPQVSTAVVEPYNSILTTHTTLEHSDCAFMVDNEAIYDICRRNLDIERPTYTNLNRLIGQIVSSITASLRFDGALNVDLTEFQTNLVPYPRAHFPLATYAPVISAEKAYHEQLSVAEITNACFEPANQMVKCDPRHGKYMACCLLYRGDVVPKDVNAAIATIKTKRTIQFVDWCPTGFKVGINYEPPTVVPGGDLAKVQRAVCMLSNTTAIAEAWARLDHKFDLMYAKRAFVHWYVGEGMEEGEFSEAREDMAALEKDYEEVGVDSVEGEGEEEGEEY
MEASUREMENT NAME: IC50 (nM)

Cc1ccc2c(=O)cc(-c3cccc(F)c3)[nH]c2n1; 525

A: Cc1ccc(-c2cc(O)c3ccc(C)nc3n2)cc1
B: COc1cccc(-c2cc(O)c3cc(N4CCOCC4)ccc3n2)c1
Field: entry with larger IC50 (options A / B ). Identify your selection by its label.
A

----------
biological target: Tubulin alpha chain (Sus scrofa)
pIC50: −log10 of the molar value.
MEASUREMENT NAME: pIC50

Record excerpt, results attached:
COc1ccc(-c2cc(O)c3c(C)ccnc3n2)cc1; 5.06
Cc1cccc(-c2cc(O)c3cc(C)cnc3n2)c1; 5.82
Cc1cccc(-c2cc(O)c3cccnc3n2)c1; 5.48
Cc1ccnc2nc(-c3ccc(Cl)cc3)cc(O)c12; 5.32
Cc1cnc2nc(-c3ccc(Cl)cc3)cc(O)c2c1; 5.70

1: Oc1cc(-c2cccs2)nc2cc3c(cc12)OCO3
2: Cc1cc(C)c2c(O)cc(-c3cccc4ccccc34)nc2n1
3: Oc1cc(-c2ccccc2F)nc2ccc(N3CCCC3)cc12
4: Cc1ccc2c(O)cc(-c3ccc(Cl)cc3)nc2n1
5: Cc1ccc2c(O)cc(-c3cc(C)sc3C)nc2n1
Kindly order the items shown according to pIC50, from the highest value down. Lab note: final answer is the ordered label list.
3, 2, 1, 5, 4
(3: 6.34, 2: 6.11, 1: 5.66, 5: 5.32, 4: 4.96)
